# System: human mammary carcinoma (MCF7)
# TEST DETAILS: MTT cytotoxicity assay, MCF7
# Type: cell-based
# CONDITIONS: light or radiation study, MCF7, 660 nm irradiation 12 J/cm^2
pIC50: −log10 of the molar value.
MEASURED QUANTITY: pIC50

STRUCTURE AS SMILES | TEST SYSTEM | MEASURED QUANTITY | RESULT
CCOC(=O)C1=C/C(=C\C=C2/Sc3ccccc3N2CC)C(=O)C(/C=C/c2sc3ccccc3[n+]2CC)=C1 | human mammary carcinoma (MCF7) | pIC50 | ~6.22

----------
# Tested on: murine mammary carcinoma cells (4T1)
# TEST DETAILS: MTT cytotoxicity assay, 4T1
# Type: cell-based
# CONDITIONS: Mus musculus, light or radiation study; 4T1, 660 nm irradiation 12 J/cm^2
pIC50: −log10 of the molar value.
MEASURED QUANTITY: pIC50

STRUCTURE AS SMILES | RESULT
CCOC(=O)C1=C/C(=C\C=C2/Sc3ccccc3N2CC)C(=O)C(/C=C/c2sc3ccccc3[n+]2CC)=C1 | ~6.30

----------
// values below are reported λem, maximum emission wavelength
# TEST DETAILS: UV-vis absorption, fluorescence emission, absolute fluorescence quantum yield and fluorescence lifetime
# Assay type: physicochemical
# CONDITIONS: in dichloromethane
MEASURED QUANTITY: λem, maximum emission wavelength (nm)

COMPOUND | RESULT UNITS | RECORDED NUMBER
CCN1/C(=C/C=C2\C=C(C)C=C(/C=C/c3sc4ccccc4[n+]3CC)C2=O)Sc2ccccc21 | nm | 780
CCOC(=O)C1=C/C(=C\C=C2/Sc3ccccc3N2CC)C(=O)C(/C=C/c2sc3ccccc3[n+]2CC)=C1 | nm | 703
CCN1/C(=C/C=C/C=C/C=C/c2sc3ccccc3[n+]2CC)Sc2ccccc21 [TCy7, reference compound] | nm | 793
CCN1/C(=C/C=C2\C=C(C=O)C=C(/C=C/c3sc4ccccc4[n+]3CC)C2=O)Sc2ccccc21 | nm | 690
CCN1/C(=C/C=C2\C=C(c3ccccc3)C=C(/C=C/c3sc4ccccc4[n+]3CC)C2=O)Sc2ccccc21 | nm | 783

----------
# TEST DETAILS: UV-vis absorption, fluorescence emission, absolute fluorescence quantum yield and fluorescence lifetime
# Type: physicochemical
# CONDITIONS: phosphate-buffered solution (PBS)
// values below are reported UV-vis absorption maximum in PBS

STRUCTURE AS SMILES | UV-vis absorption maximum in PBS
CCOC(=O)C1=C/C(=C\C=C2/Sc3ccccc3N2CC)C(=O)C(/C=C/c2sc3ccccc3[n+]2CC)=C1 | 610 nm
CCN1/C(=C/C=C2\C=C(C)C=C(/C=C/c3sc4ccccc4[n+]3CC)C2=O)Sc2ccccc21 | 701 nm
CCN1/C(=C/C=C2\C=C(C=O)C=C(/C=C/c3sc4ccccc4[n+]3CC)C2=O)Sc2ccccc21 | 552 nm
CCN1/C(=C/C=C2\C=C(c3ccccc3)C=C(/C=C/c3sc4ccccc4[n+]3CC)C2=O)Sc2ccccc21 | 613 nm

----------
# TEST DETAILS: Oil-water partition coefficient (Log P)
# Assay type: physicochemical

MOLECULE | logP
CCN1/C(=C/C=C2\C=C(C=O)C=C(/C=C/c3sc4ccccc4[n+]3CC)C2=O)Sc2ccccc21 [QTCy7-CHO] | 1.17
CCOC(=O)C1=C/C(=C\C=C2/Sc3ccccc3N2CC)C(=O)C(/C=C/c2sc3ccccc3[n+]2CC)=C1 [QTCy7-Ac] | 1.41
CCN1/C(=C/C=C2\C=C(c3ccccc3)C=C(/C=C/c3sc4ccccc4[n+]3CC)C2=O)Sc2ccccc21 [QTCy7-Ph] | 1.69
CCN1/C(=C/C=C2\C=C(C)C=C(/C=C/c3sc4ccccc4[n+]3CC)C2=O)Sc2ccccc21 [QTCy7-Me] | 1.43
